- Test system: SNB-19 CNS
- test: NCI-60 one-dose screen, 48 h (100 = growth as untreated, 0 = no growth, -100 = all killed)
- conditions: 10 µM unless noted
Compounds without any hit were thinned out: in the full panel of roughly 83,000, 20% have a hit.
measure name: growth (%)
Kindly provide the numeric value in % only, without the unit symbol.

smiles notation: Clc1ccc2c(N/N=C/c3c[nH]c4ccccc34)ccnc2c1
growth / %: -92.4

smiles notation: O=c1c2cc(-c3ccc(F)cc3F)ccc2n(O)c(=O)n1-c1cccc(C(F)(F)F)c1
growth / %: 10.5

smiles notation: NCCNC(=O)c1cccc(COc2ccccc2NC(=O)c2cc(Br)c(Br)[nH]2)c1
growth / %: 71.1

smiles notation: CN(C)S(=O)(=O)c1ccc(-c2nc(C(Cl)Cl)nc3cc(-c4ccc(F)cc4)nn23)cc1
growth / %: 23.5

Next compound, please.
**Q:** // fetch growth; item: CCOC(=O)c1c(NCC(=O)Nc2cccc([N+](=O)[O-])c2)sc(C(C)=O)c1C ; system: SNB-19 CNS
**A:** 9.51

* * *

- System: SR leukemia
- test: NCI-60 one-dose screen, 48 h
- conditions: 10 µM unless noted
About 83,000 compounds went through this panel and 20% of them were active in at least one assay; those are over-represented in the sample as a whole. Activity calls are given as the source filed them. The calls were made as follows: active = growth percent below 10; inactive = the rest.
Form entry, call: pick from 1 (yes) = active, 0 (no) = inactive

Past entries and their recorded results:
smiles notation: CN1CCN(c2ccc(Nc3nc(NCCCNS(=O)(=O)c4ccc(C(F)(F)F)cc4)c4sccc4n3)cc2)CC1
tested on: SR leukemia
classification: 1 (yes)
//
smiles notation: Cc1ccc(CSC2=C(Cl)CN(c3ccc(Cl)cc3)C2=O)cc1
tested on: SR leukemia
classification: 0 (no)
//
smiles notation: Nc1nc(=O)n([C@H]2C[C@H](O)[C@@H](CO)O2)cc1C=O
tested on: SR leukemia
classification: 0 (no)
//
smiles notation: CC1CCN(CC(=O)Nn2c(COc3ccccc3)nc3ccccc3c2=O)CC1
tested on: SR leukemia
classification: 0 (no)

**Q:** What did this assay record as the result for COc1ccc(C(=O)c2c(N)c(C#N)cn2-c2ccc(Cl)cc2Cl)cc1 ?
**A:** 0 (no)

**Q:** Please share the test call associated with N#Cc1c(-c2cccs2)cc(-c2cnccn2)nc1SCC(=O)N/N=C/c1ccc(Cl)cc1 .
**A:** 0 (no)

**Q:** GET /call?item= CCN(CC)CCOc1ccc(C(=C(c2ccccc2)C2CCCC2)c2ccc(OCCN(CC)CC)cc2)cc1 returns the recorded outcome of this test.
**A:** 1 (yes)

**Q:** For CN(C)CC(=O)Nc1nc(-c2cccc(NS(=O)(=O)c3cccc4c(N(C)C)cccc34)c2)cs1 , what call appears in the results of this test?
**A:** 0 (no)

**Q:** For Cc1cc(NS(=O)(=O)c2ccc(NC(=O)CSc3nc4ccccc4c(=O)n3-c3ccccc3)cc2)no1 , what call appears in the results of this test?
**A:** 0 (no)

* * *

- Tested on: A498 renal
- test: NCI-60 one-dose screen, 48 h (100 = growth as untreated, 0 = no growth, -100 = all killed)
- conditions: 10 µM unless noted
About 83,000 compounds went through this panel and 20% of them were active in at least one assay; those are over-represented in the sample as a whole.
measure name: growth (%)
Answer format: numeric, % implied, no suffix.

compound: C[C@]12CC[C@H]3[C@@H](CC=C4C[C@@H](O)CC[C@@]43C)[C@@H]1CC[C@@H]2[C@](C)(O)CCc1cccnc1
tested on: A498 renal
growth / %: 72.8
--
compound: Cc1cc(Br)ccc1-n1cc(C#N)c(N)c1C(=O)c1ccc(Br)cc1
tested on: A498 renal
growth / %: 114
--
compound: CCOC(=O)Nc1ccc2c(ccn2C(=O)c2cccc(F)c2)c1
tested on: A498 renal
growth / %: -6.19
--
compound: Clc1ccc2c(N/N=C/c3c[nH]c4ccccc34)ccnc2c1
tested on: A498 renal
growth / %: -93.6
--
compound: Cc1ccc(C(=O)CSc2nc3ccccc3c(=O)n2C)cc1
tested on: A498 renal
growth / %: 99.8
--
compound: C[C@H]1OCC2(CCN(c3cnc(C(=O)Nc4cc(F)cc5cccnc45)cn3)CC2)[C@H]1N
tested on: A498 renal
growth / %: 65.2
--
compound: C#CCn1cc(/C=N/Nc2nc(-c3ccc(Br)cc3)cs2)c2ccccc21
tested on: A498 renal
growth / %: 94.7
--
compound: CCN(CC)S(=O)(=O)c1ccc(-c2nc(C(Cl)Cl)nc3cc(-c4ccc(F)cc4)nn23)cc1
tested on: A498 renal
growth / %: 56.2

**Q:** Dear colleague, please send me the reported growth for COc1ccc(C(C)=C(c2ccc(OCCN3CCCCCC3)cc2)c2ccc(OCCN3CCCCCC3)cc2)cc1 when you can.
**A:** 27.9

**Q:** Please give measured growth of the following entry: CC(=O)Nc1nc(C)c(-c2csc(Nc3ccccc3)n2)s1
**A:** 16

**Q:** Quick one: give measured growth for N#Cc1nc(-c2ccccc2)oc1N1CCC(C2(C(F)(F)F)N=N2)CC1
**A:** 85.4

**Q:** Please indicate growth recorded for O=c1oc2ccc(-c3ccc(F)cc3F)cc2c(=O)n1-c1ccc(Br)cc1F
**A:** 37.4

**Q:** Give the measured growth for Cc1ccc(/C=N/Nc2nc(Nc3ccccc3)nc(Nc3ccc(S(N)(=O)=O)cc3)n2)cc1
**A:** 54.7

**Q:** Consider the compound N#Cc1c(-c2cccs2)c(C#N)c(=O)n(Cc2nc3ccccc3[nH]2)c1N and give its recorded growth.
**A:** 118

**Q:** For the compound CC(Nc1c(C#N)cnc2ccc(-c3cncc(-c4n[nH]c(=O)o4)c3)cc12)c1ccccc1 (centres undefined) , give its measured growth value.
**A:** -6.1

**Q:** Annotate the compound O=C(CSc1nc2ccccc2c(=O)n1-c1ccc(Cl)c(Cl)c1)Nc1ccc(S(=O)(=O)Nc2ccc(Cl)nn2)cc1 with its measured growth.
**A:** 103
